- Test system: PI(3)P liposomes
- measurement protocol: Yeast proteome chip probed with PI(3)P liposomes
- cond: liposome binding signal on yeast proteome chip, Cy3-streptavidin detection
recorded metric: PI(3)P

TFB3: yeast GST-HisX6 fusion protein on proteome chip (protein, UniProt Q03290 1-321, looked up, GST-His6 tag, yeast GST-HisX6 fusion protein on proteome chip) RNA polymerase II …: MLMDEYEENKDMCPICKTDRYLSPDVKFLVNPECYHRICESCVDRIFSLGPAQCPYKGCDKILRKNKFKTQIFDDVEVEKEVDIRKRVFNVFNKTIDDFNGDLVEYNKYLEEVEDIIYKLDHGIDVAKTEEKLRTYEELNKQLIMNNLERSRTEIESFEQRQKFEKEMKLKKRLLERQIEEEERMNKEWTKKEIVNRLSTTTQDINETIEGVKNTVKLKKSSARRKLEELNRVLKNNPYFNSNVNVQNSRLKDAVPFTPFNGDREAHPRFTLKGSVYNDPFIKDLEHRKEFIASGFNTNYAYERVLTEAFMGLGCVISEEL    71.00
